Values were extracted from ChEMBL document CHEMBL1909523.

# assay details: Inhibition of helicase activity of SCV NTPase/helicase assessed as inhibition of ds-DNA unwinding after 5 mins by FRET assay
# Design: species or system Severe acute respiratory syndrome-related coronavirus
assay endpoint: IC50

Here are 4 compounds together with their reported answers.
>  <cpd smiles>
O=c1cc(OCc2ccccc2)oc2ccc(OCc3cccc(Cl)c3)c(O)c12

>  <assay endpoint>
IC50

>  <result>
> 50 µM

$$$$
>  <cpd smiles>
N#Cc1cccc(COc2cc(=O)c3c(O)c(OCc4cccc(Cl)c4)ccc3o2)c1

>  <assay endpoint>
IC50

>  <result>
> 50 µM

$$$$
>  <cpd smiles>
O=c1c(OCc2cccc([N+](=O)[O-])c2)c(-c2ccccc2)oc2cc(O)cc(O)c12

>  <assay endpoint>
IC50

>  <result>
> 50 µM

$$$$
>  <cpd smiles>
O=c1cc(OCc2cccc(Cl)c2)oc2ccc(OCc3cccc(Cl)c3)c(O)c12

>  <assay endpoint>
IC50

>  <result>
40 µM

$$$$

Fill in: IC50 of N#Cc1cccc(COc2cc(O)c3c(=O)c(O)c(-c4ccccc4)oc3c2)c1 is ___
> 50 µM

Please look up its IC50: O=c1cc(OCc2ccc(Cl)cc2)oc2ccc(OCc3cccc(Cl)c3)c(O)c12
53 µM

Any idea what IC50 was measured for O=c1cc(OCc2ccc(I)cc2)oc2ccc(OCc3cccc(Cl)c3)c(O)c12 ?
31 µM

IC50 lookup needed for O=c1cc(OCc2cccc(I)c2)oc2ccc(OCc3cccc(Cl)c3)c(O)c12 , thanks.
11 µM

Param item = O=c1cc(OCc2cc(Cl)cc(Cl)c2)oc2ccc(OCc3cccc(Cl)c3)c(O)c12 ; retrieve measured IC50.
> 50 µM

* * *

# Test system: Hepatitis C virus
# assay details: Antiviral activity against HCV genotype 1 infected in human Huh7 cells assessed as reduction of viral replication after 4 days by luciferase reporter gene assay
# Assay type: functional, organism-based, Hepacivirus hominis
# assay conditions: genotype 1, Huh-7, 96 h
pEC50: −log10 of the molar value.
Lab note: compare pEC50 against 5. Equal or greater, write 1.0. Smaller, write 0.0.

Previously resolved entries follow.
>  <cpd smiles>
N#Cc1cccc(COc2cc(=O)c3c(O)c(OCc4cccc(Cl)c4)ccc3o2)c1

>  <class assignment>
0.0

$$$$
>  <cpd smiles>
O=C(O)/C(O)=C/C(=O)c1cccc(NCc2ccc(Cl)cc2)c1

>  <class assignment>
1.0

$$$$
>  <cpd smiles>
O=c1cc(OCc2cc(Cl)cc(Cl)c2)oc2ccc(OCc3cccc(Cl)c3)c(O)c12

>  <class assignment>
1.0

$$$$
>  <cpd smiles>
O=c1cc(OCc2ccc(Cl)cc2)oc2ccc(OCc3cccc(Cl)c3)c(O)c12

>  <class assignment>
0.0

$$$$
>  <cpd smiles>
O=c1cc(OCc2cccc(I)c2)oc2ccc(OCc3cccc(Cl)c3)c(O)c12

>  <class assignment>
1.0

$$$$
>  <cpd smiles>
O=c1cc(OCc2ccccc2)oc2ccc(OCc3cccc(Cl)c3)c(O)c12

>  <class assignment>
0.0

$$$$
>  <cpd smiles>
O=c1cc(OCc2cccc(Cl)c2)oc2ccc(OCc3cccc(Cl)c3)c(O)c12

>  <class assignment>
0.0

$$$$

Exam item: decide whether the reported pEC50 for O=c1cc(OCc2ccc(I)cc2)oc2ccc(OCc3cccc(Cl)c3)c(O)c12 is at least 5.
1.0
